For each entry below, report its kobs /[I] mast cell tryptase value.
TARGET OR TEST SYSTEM: mast cell tryptase (Homo sapiens, UniProt Q15661)
Sequence (Q15661 31-275): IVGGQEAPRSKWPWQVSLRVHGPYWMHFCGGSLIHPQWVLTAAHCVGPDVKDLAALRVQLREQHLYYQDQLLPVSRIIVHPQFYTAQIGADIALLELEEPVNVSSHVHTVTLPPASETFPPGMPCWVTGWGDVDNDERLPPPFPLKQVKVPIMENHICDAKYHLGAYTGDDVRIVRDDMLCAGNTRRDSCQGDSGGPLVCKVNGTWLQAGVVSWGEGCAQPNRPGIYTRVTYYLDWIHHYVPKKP
ASSAY METHOD TEXT: Inactivation rate of mast cell tryptase, incubation method
Assay type: biochemical
MEASUREMENT CONTEXT: Table II; 0.07 μM tryptase, 20-66 μM inhibitor, Hepes pH 7.5, heparin, 9% glycerol, 8% DMSO, 25° C.; NI = no inhibition
Your reply should be a number followed by the unit it is expressed in.

Reported kobs /[I] mast cell tryptase, compound N=C(N)c1ccc(C(NC(=O)CCC(=O)O)P(=O)(Oc2ccccc2)Oc2ccccc2)cc1 (centres unmarked) : ____
0.2 M⁻¹ s⁻¹

Give the measured kobs /[I] mast cell tryptase of CC(NC(=O)C(CCCCNC(=O)OC(C)(C)C)NC(=O)OCc1ccccc1)C(=O)NC(c1ccc(C(=N)N)cc1)P(=O)(Oc1ccccc1)Oc1ccccc1 (mixture of isomers) .
8.7 ± 0.4 M⁻¹ s⁻¹

Consider the compound Cl.N=C(N)c1ccc(C(NC(=O)c2ccccc2Oc2ccccc2)P(=O)(Oc2ccccc2)Oc2ccccc2)cc1 (centres unmarked) and give its measured kobs /[I] mast cell tryptase.
0.4 M⁻¹ s⁻¹

Fill in the blank: the reported kobs /[I] mast cell tryptase of C[C@H](NC(=O)[C@@H]1CCCN1C(=O)OCc1ccccc1)C(=O)NC(c1ccc(C(=N)N)cc1)P(=O)(Oc1ccccc1)Oc1ccccc1 (some centres unmarked) is ____.
1 ± 0 M⁻¹ s⁻¹

Field request: kobs /[I] mast cell tryptase | item: CC(NC(=O)C(Cc1ccccc1)NC(=O)OCc1ccccc1)C(=O)NC(c1ccc(C(=N)N)cc1)P(=O)(Oc1ccccc1)Oc1ccccc1 (mixture of isomers)
4.0 ± 0.3 M⁻¹ s⁻¹

I'd like to know its kobs /[I] mast cell tryptase. The compound in question is C[C@H](NC(=O)OCc1ccccc1)C(=O)N[C@@H](C)C(=O)NC(c1ccc(C(=N)N)cc1)P(=O)(Oc1ccccc1)Oc1ccccc1 (some centres unmarked)
2 ± 0 M⁻¹ s⁻¹

// query kobs /[I] mast cell tryptase value for entry Cl.N=C(N)c1ccc(C(NC(=O)[C@@H]2CCCN2C(=O)OCc2ccccc2)P(=O)(Oc2ccccc2)Oc2ccccc2)cc1 (some centres unmarked)
1 M⁻¹ s⁻¹

Request the reported kobs /[I] mast cell tryptase associated with N=C(N)c1ccc(C(NS(=O)(=O)c2cccc3ccccc23)P(=O)(Oc2ccccc2)Oc2ccccc2)cc1 (racemic)
10 ± 1 M⁻¹ s⁻¹

Query: kobs /[I] mast cell tryptase; subject: CC(C)CC(NC(=O)OCc1ccccc1)C(=O)NC(c1ccc(C(=N)N)cc1)P(=O)(Oc1ccccc1)Oc1ccccc1 (mixture of isomers)
0.3 M⁻¹ s⁻¹

Given the compound Cl.N=C(N)c1ccc(C(NC(=O)[C@@H]2CCCN2C(=O)c2ccccc2Oc2ccccc2)P(=O)(Oc2ccccc2)Oc2ccccc2)cc1 (some centres unmarked) , what is its reported kobs /[I] mast cell tryptase?
0.9 M⁻¹ s⁻¹

Quick check: kobs /[I] mast cell tryptase of C[C@H](NC(=O)CCC(=O)O)C(=O)N[C@@H](C)C(=O)NC(c1ccc(C(=N)N)cc1)P(=O)(Oc1ccccc1)Oc1ccccc1 (some centres unmarked) ?
0.7 M⁻¹ s⁻¹

----------
TARGET OR TEST SYSTEM: UniProt P00749
ASSAY METHOD TEXT: Inactivation rate of urokinase, incubation method
Type: biochemical
MEASUREMENT CONTEXT: Table III; enzyme 0.06-0.5 μM, inhibitor 0.25-42 μM, 9% DMSO, 25° C.; NI = no inhibition
MEASURED ENDPOINT: kobs /[I] urokinase

Can you look up the measured kobs /[I] urokinase of NCCCCC(NC(=O)[C@@H]1CCCN1C(=O)CC(c1ccccc1)c1ccccc1)P(=O)(Oc1ccccc1)Oc1ccccc1 (stereo partly drawn) for me?
1.5 ± 0.0 M⁻¹ s⁻¹

Entry under review: NCCCCCC(NC(=O)C1CCCN1C(=O)C(N)Cc1ccccc1)P(=O)(Oc1ccccc1)Oc1ccccc1 (mixture of isomers) . Reported kobs /[I] urokinase?
7.8 ± 0.0 M⁻¹ s⁻¹

Look up kobs /[I] urokinase: NCCCCCC(NC(=O)[C@@H]1CCCN1C(=O)CC(c1ccccc1)c1ccccc1)P(=O)(Oc1ccccc1)Oc1ccccc1 (stereo partly drawn)
2.1 ± 0.2 M⁻¹ s⁻¹

Reported kobs /[I] urokinase, molecule NCCCCC(NC(=O)C1CCCN1C(=O)CNS(=O)(=O)Cc1ccccc1)P(=O)(Oc1ccccc1)Oc1ccccc1 (mixture of isomers) : ____
39 ± 2 M⁻¹ s⁻¹

What kobs /[I] urokinase value was documented for this molecule, Cl.NCCCCCC(NC(=O)[C@@H]1CCCN1C(=O)c1cccc(Oc2ccccc2)c1)P(=O)(Oc1ccccc1)Oc1ccccc1 (stereo partly drawn) ?
22 ± 1 M⁻¹ s⁻¹

Tell me the measured kobs /[I] urokinase of Cl.NCCCCC(NC(=O)[C@@H]1CCCN1C(=O)c1ccccc1Oc1ccccc1)P(=O)(Oc1ccccc1)Oc1ccccc1 (stereo partly drawn) , please.
0.6 ± 0.1 M⁻¹ s⁻¹

Which measured kobs /[I] urokinase value corresponds to CC(O)C(NC(=O)OCc1ccccc1)C(=O)NC(CCCCN)P(=O)(Oc1ccccc1)Oc1ccccc1 (mixture of isomers) ?
0.7 ± 0.1 M⁻¹ s⁻¹

Entry CC(C)(C)OC(=O)NC(Cc1ccccc1)C(=O)N1CCCC1C(=O)NC(CCCCN)P(=O)(Oc1ccccc1)Oc1ccccc1 (mixture of isomers) : reported kobs /[I] urokinase = ?
38 ± 3 M⁻¹ s⁻¹

Request the reported kobs /[I] urokinase associated with Cl.NCCCCCC(NC(=O)[C@@H]1CCCN1C(=O)c1ccccc1Oc1ccccc1)P(=O)(Oc1ccccc1)Oc1ccccc1 (stereo partly drawn)
24 ± 4 M⁻¹ s⁻¹

Query: kobs /[I] urokinase; subject: NCCCCCC(NC(=O)C1CCCN1C(=O)CNS(=O)(=O)Cc1ccccc1)P(=O)(Oc1ccccc1)Oc1ccccc1 (mixture of isomers)
38 ± 3 M⁻¹ s⁻¹

I'd like to know its kobs /[I] urokinase. The molecule in question is Cl.NCCCCC(NC(=O)[C@@H]1CCCN1C(=O)c1cccc(Oc2ccccc2)c1)P(=O)(Oc1ccccc1)Oc1ccccc1 (stereo partly drawn)
1.6 ± 0.1 M⁻¹ s⁻¹

Query: kobs /[I] urokinase; subject: Cl.NCCCCC(NC(=O)OCc1ccccc1)P(=O)(Oc1ccccc1)Oc1ccccc1 (stereo not drawn)
15 ± 2 M⁻¹ s⁻¹

----------
TARGET OR TEST SYSTEM: human granzyme A (Homo sapiens)
Sequence (P12544 29-262): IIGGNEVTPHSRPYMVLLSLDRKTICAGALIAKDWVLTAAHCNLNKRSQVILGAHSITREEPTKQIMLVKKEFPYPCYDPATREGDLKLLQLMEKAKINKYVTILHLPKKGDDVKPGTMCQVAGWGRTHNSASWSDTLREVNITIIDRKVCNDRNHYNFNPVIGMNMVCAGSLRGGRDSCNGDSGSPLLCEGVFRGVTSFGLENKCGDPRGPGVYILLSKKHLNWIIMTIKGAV
ASSAY METHOD TEXT: Inactivation rate of human granzyme A, incubation method
Format: biochemical
MEASUREMENT CONTEXT: Table I; 0.1M Hepes, 0.01M CaCl2 pH 7.5, 25° C., 7.6% DMSO, substrate Z--Arg--SBzl
MEASURED ENDPOINT: kobsd /[I] human granzyme A (M⁻¹ s⁻¹)
Give the value in M⁻¹ s⁻¹ but do not write M⁻¹ s⁻¹ after it.

I would be grateful if you could share the reported kobsd /[I] human granzyme A for N=C(N)c1ccc(C(NC(=O)C2CCCN2C(=O)CNS(=O)(=O)Cc2ccccc2)P(=O)(Oc2ccccc2)Oc2ccccc2)cc1 (mixture of isomers) .
3650

Requested field: kobsd /[I] human granzyme A. Item: CC(NC(=O)C(CCCCNC(=O)OC(C)(C)C)NC(=O)OCc1ccccc1)C(=O)NC(c1ccc(C(=N)N)cc1)P(=O)(Oc1ccccc1)Oc1ccccc1 (mixture of isomers)
110

So what does the record say about kobsd /[I] human granzyme A for N=C(N)c1ccc(C(NC(=O)C2CCCN2C(=O)CCc2ccccc2)P(=O)(Oc2ccccc2)Oc2ccccc2)cc1 (stereo not drawn) ?
1510

Looking for the measured kobsd /[I] human granzyme A of C[C@H](NC(=O)OCc1ccccc1)C(=O)N[C@@H](C)C(=O)NC(c1ccc(C(=N)N)cc1)P(=O)(Oc1ccccc1)Oc1ccccc1 (stereo partly drawn) , can you help?
820

Report kobsd /[I] human granzyme A for Cl.N=C(N)c1ccc(C(NC(=O)C=Cc2cccs2)P(=O)(Oc2ccccc2)Oc2ccccc2)cc1 (stereo not drawn) please.
740

Return reported kobsd /[I] human granzyme A; argument: N=C(N)c1ccc(C(NC(=O)[C@@H]2CCCN2C(=O)CC(c2ccccc2)c2ccccc2)P(=O)(Oc2ccccc2)Oc2ccccc2)cc1 (stereo partly drawn)
250

----------
TARGET OR TEST SYSTEM: human thrombin (Homo sapiens, UniProt P00734)
Construct: bovine trypsin, human thrombin
Format: biochemical
MEASUREMENT CONTEXT: Table II; 0.07 μM thrombin, 0.25-42 μM inhibitor, 80 mM Hepes pH 7.5, 428 mM NaCl, 8% DMSO, 25° C.; NI = no inhibition
Method: Inactivation rates of serine proteases by aryl diesters of peptidyl derivatives of α-aminoalkylphosphonates were measured by the incubation method. […] Aliquots (50 μl) were withdrawn at various intervals and the residual enzymatic activity was measured. […] All peptide thioesters hydrolysis rates were measured with the assay mixture containing 4,4'-dithiodipyridine {ε324 =19800 M^-1 cm^-1; Grasetti & Murray, Arch. […] residual enzymatic activity was measured as described in experimental […]
MEASURED ENDPOINT: kobs /[I] human thrombin (M⁻¹ s⁻¹)
Value expressed in M⁻¹ s⁻¹; do not type the unit.

Return kobs /[I] human thrombin measured with human thrombin (Homo sapiens, UniProt P00734) given this compound: CC(C)CC(NC(=O)OC(C)(C)C)C(=O)NC(CO)C(=O)NC(c1ccc(C(=N)N)cc1)P(=O)(Oc1ccccc1)Oc1ccccc1 (mixture of isomers)
97

What value of kobs /[I] human thrombin on human thrombin (Homo sapiens, UniProt P00734) does Cl.N=C(N)c1ccc(C(NC(=O)C=Cc2cccs2)P(=O)(Oc2ccccc2)Oc2ccccc2)cc1 (stereo not drawn) have?
90
